Procedure Text: Toxicity in BALB/c mouse allografted with mouse CT26 cells assessed as MCHC level at 40 to 60 mg/kg, ip administered once a day for 10 days (reference value: 338 to 361 g/L)
Format: organism-based
Measurement Parameters: in vivo, 240 h, dose 40-60 mg/kg, time 10 day
Endpoint Name: Activity

Q: Consider the molecule shown here: COc1ccc(C(F)(F)F)cc1-c1cc2c(N3CC4CCC(C3)N4)ncnc2s1 What is its recorded Activity?
Result: 336 g/L

###

Test system: NCI-H358
Procedure Text: Antiproliferative activity against human NCI-H358 cells harboring KRAS G12C mutant assessed as inhibition of cell viability after 24 hrs by MTT assay
Format: functional, cell-based
Measurement Parameters: NCI-H358, 24 h
Endpoint Name: log10 IC50 (log10 of the value in µM)
Values reflect log10 of reported IC50 (µM).

Q: Consider the compound shown here: Clc1ccc(-c2cc3c(N4CC5CCC(C4)N5)ncnc3s2)cc1Cl What is its recorded log10 IC50?
Result: 0.97

Q: Consider the compound shown here: COc1ccc(C(F)(F)F)cc1-c1cc2c(N3CC4CCC(C3)N4)ncnc2s1 What is its recorded log10 IC50?
Result: 0.65

Q: Consider the compound shown here: COc1ccc(Cl)cc1-c1cc2c(N3CC4CCC(C3)N4)ncnc2s1 What is its recorded log10 IC50?
Result: 0.97

Q: Consider the compound shown here: COc1cc(-c2cc3c(N4CC5CCC(C4)N5)ncnc3s2)cc(C(F)(F)F)c1 What is its recorded log10 IC50?
Result: 0.65

Q: Consider the compound shown here: COc1cc(Cl)ccc1-c1cc2c(N3CC4CCC(C3)N4)ncnc2s1 What is its recorded log10 IC50?
Result: 0.97

Q: Consider the compound shown here: Fc1ccc(F)c(-c2cc3c(N4CC5CCC(C4)N5)ncnc3s2)c1 What is its recorded log10 IC50?
Result: 1.33

Q: Consider the compound shown here: C=CC(=O)N1CCN(c2ncnc3c(F)c(-c4c(O)cccc4F)c(Cl)cc23)CC1 What is its recorded log10 IC50?
Result: -0.70

Q: Consider the compound shown here: FC(F)(F)c1cc(Cl)cc(-c2cc3c(N4CC5CCC(C4)N5)ncnc3s2)c1 What is its recorded log10 IC50?
Result: 0.96

Q: Consider the compound shown here: Clc1ccc(Cl)c(-c2cc3c(N4CC5CCC(C4)N5)ncnc3s2)c1 What is its recorded log10 IC50?
Result: 1.00

###

IC50 for assorted compounds
Tested on: PANC-1
Procedure Text: Antiproliferative activity against human PANC1 cells harboring KRAS G12D mutant assessed as inhibition of cell viability after 24 hrs by MTT assay
Assay type: functional, cell-based
Measurement Parameters: PANC-1, 24 h

Given Smiles | IC50
O=[N+]([O-])c1ccc(-c2cc3c(N4CC5CCC(C4)N5)ncnc3s2)cc1 | 16.8 µM
Clc1ccc(-c2cc3c(N4CC5CCC(C4)N5)ncnc3s2)cc1Cl | 7.5 µM
COc1cc(-c2cc3c(N4CC5CCC(C4)N5)ncnc3s2)cc(C(F)(F)F)c1 | 7.7 µM

Q: Consider the compound shown here: COc1ccc(Cl)c(-c2cc3c(N4CC5CCC(C4)N5)ncnc3s2)c1 What is its recorded IC50?
Result: 6.7 µM

Q: Consider the compound shown here: Fc1ccc(-c2cc3c(N4CC5CCC(C4)N5)ncnc3s2)c(F)c1 What is its recorded IC50?
Result: 13 µM

Q: Consider the compound shown here: c1ccc(-c2cc3c(N4CC5CC(C4)N5)ncnc3s2)cc1 What is its recorded IC50?
Result: 30.5 µM

Q: Consider the compound shown here: Cc1ccc(-c2cc3c(N4CC5CCC(C4)N5)ncnc3s2)c(C)c1 What is its recorded IC50?
Result: 10.1 µM

Q: Consider the compound shown here: COc1cc(Cl)ccc1-c1cc2c(N3CC4CCC(C3)N4)ncnc2s1 What is its recorded IC50?
Result: 6.8 µM

Q: Consider the compound shown here: C=CC(=O)N1CCN(c2ncnc3c(F)c(-c4c(O)cccc4F)c(Cl)cc23)CC1 What is its recorded IC50?
Result: > 20 µM

Q: Consider the compound shown here: COc1ccc(-c2cc3c(N4CC5CCC(C4)N5)ncnc3s2)cc1F What is its recorded IC50?
Result: 10.2 µM

###

pIC50 for assorted compounds
System: PANC-1
Procedure Text: Antiproliferative activity against human PANC1 cells harboring KRAS G12D mutant assessed as inhibition of cell viability after 24 hrs by MTT assay
Type: functional, cell-based
Measurement Parameters: PANC-1, 24 h
Scale for pIC50: -log10 of concentration given in mol/L; no unit attached.

Reference set, count: 5
Given Smiles | Endpoint Name | Recorded Result
COc1cccc(F)c1-c1cc2c(N3CC4CCC(C3)N4)ncnc2s1 | pIC50 | 4.82
Fc1cc(-c2cc3c(N4CC5CCC(C4)N5)ncnc3s2)ccc1Cl | pIC50 | 4.61
Cc1ccc(-c2cc3c(N4CC5CCC(C4)N5)ncnc3s2)c(Cl)c1 | pIC50 | 4.94
Clc1ccc(Cl)c(-c2cc3c(N4CC5CCC(C4)N5)ncnc3s2)c1 | pIC50 | 5.37
COc1ccc(C(F)(F)F)cc1-c1cc2c(N3CC4CCC(C3)N4)ncnc2s1 | pIC50 | 5.64

Q: Consider the compound shown here: FC(F)(F)c1ccc(Cl)c(-c2cc3c(N4CC5CCC(C4)N5)ncnc3s2)c1 What is its recorded pIC50?
Result: 5.03

Q: Consider the compound shown here: COc1ccc(Cl)cc1-c1cc2c(N3CC4CCC(C3)N4)ncnc2s1 What is its recorded pIC50?
Result: 5.40

Q: Consider the compound shown here: FC(F)(F)c1ccc(-c2cc3c(N4CC5CCC(C4)N5)ncnc3s2)cc1 What is its recorded pIC50?
Result: 4.99

###

Test system: PANC-1
Procedure Text: Antiproliferative activity against human PANC1 cells harboring KRAS G12D mutant assessed as inhibition of cell viability after 24 hrs by MTT assay
Type: functional, cell-based
Measurement Parameters: PANC-1, 24 h
Rule for this label: Met means IC50 is less than 8 µM; Not met means IC50 is at least 8 µM.

Given Smiles | Assayed Target | Label Class
FC(F)(F)c1cc(Cl)cc(-c2cc3c(N4CC5CCC(C4)N5)ncnc3s2)c1 | PANC-1 | Met
Fc1ccc(F)c(-c2cc3c(N4CC5CCC(C4)N5)ncnc3s2)c1 | PANC-1 | Met
Fc1cc(-c2cc3c(N4CC5CCC(C4)N5)ncnc3s2)cc(C(F)(F)F)c1 | PANC-1 | Not met

Q: Please indicate whether the reported IC50 of c1ccc(-c2cccc3ccccc23)c(-c2cc3c(N4CC5CCC(C4)N5)ncnc3s2)c1 is strictly below 8 µM.
Result: Met
